A short record of pIC50 observed with UniProtKB O15379 follows.
Sequence (O15379 whole entry): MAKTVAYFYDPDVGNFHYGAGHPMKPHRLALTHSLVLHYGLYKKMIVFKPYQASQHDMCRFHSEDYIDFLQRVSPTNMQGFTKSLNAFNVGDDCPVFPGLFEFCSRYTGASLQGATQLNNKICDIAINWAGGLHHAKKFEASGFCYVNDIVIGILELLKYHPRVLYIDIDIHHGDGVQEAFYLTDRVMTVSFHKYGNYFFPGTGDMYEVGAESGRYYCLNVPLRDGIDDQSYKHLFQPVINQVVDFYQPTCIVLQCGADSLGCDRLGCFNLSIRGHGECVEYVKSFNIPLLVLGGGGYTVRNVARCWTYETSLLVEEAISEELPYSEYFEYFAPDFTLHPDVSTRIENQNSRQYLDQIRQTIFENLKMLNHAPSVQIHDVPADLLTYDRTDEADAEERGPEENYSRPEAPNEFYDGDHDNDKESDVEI
pIC50: −log10 of the molar value.
readout_kind: pIC50

molecule: O=C(NO)c1ccc(Cn2c3c(c4ccccc42)C(=O)CCC3)cc1
result: < 4.70

molecule: CN1CCN(CC2CCc3c(c4cc(F)ccc4n3Cc3ccc(C(=O)NO)cc3)C2=O)CC1 (configuration not stated)
result: < 4.70

====

assay_procedure: AUClast in monkey at 10 mg/kg, po
Type: ADME, organism-based, Macaca mulatta
reported_conditions: rhesus monkey, in vivo
readout_kind: AUC(0-t) (ng·h/mL)

smiles_representation: CC1(C)CC(=O)c2c(C(F)(F)F)nn(Cc3ccc(C(=O)NO)cc3)c2C1
units_label: ng·h/mL
numeric_readout: 332
